# experimental_target: Photoreceptor-specific nuclear receptor (Homo sapiens)
# protocol_text: NR2E3 agonist confirmation in cells, cell-based, luminescence, CHO-S two-hybrid (AID 624378);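 note: 0% = DMSO in NR2E3 cells and 100% = DMSO in cells lacking NR2E3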
# assay_conditions: CHO-S mammalian two-hybrid NR2E3-NCOR, luciferase luminescence; at 3.98 µM; hits give high values
The other results are listed elsewhere or left out. Activity calls are given as the source filed them.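 Rule for the calls: active = average inhibition above a cutoff equal to the mean inhibition of all tested compounds plus one SD (cut at about 70% in these data); inactive = the rest.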
endpoint_name: inhibition

Measured inhibition of `C=CCC1(CC=C)CCCN1C(=O)c1cc(COc2ccc(-n3cncn3)cc2)on1` : 97.4% (active)

Notebook: c1ccc(C2c3[nH]c4ccccc4c3CCN2Cc2cccn2-c2cccnc2)nc1 (centres undefined) , inhibition read as -1.67% (inactive)

So, `CCOc1ccc(S(=O)(=O)N2CCCCCC2)c2ccccc12` ? Its inhibition was 50.4% (inactive)

Recorded inhibition (compound `COc1cccc(NS(=O)(=O)c2ccc(-c3coc(C)n3)cc2)c1` ): 10.9% (inactive)

----------
# protocol_text: growth loss of RecBCD+ E. coli with mutant T4 phage, counter-screen for AddAB inhibitor project, absorbance, V66 E. coli (AID 488955);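 note: optical density read after an 18 h incubation at 37 °C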
# assay_conditions: OD growth, at 11.9 µM, hits give high values
The other results are listed elsewhere or left out.
Answer each item with its documented inhibition.
Field: numeric (%). Do not append units.

// C=C1c2c(Cl)ccc(O)c2C(O)=C2C(=O)[C@]3(O)C(O)=C(C(N)=O)C(=O)[C@@H](N(C)C)[C@@H]3[C@@H](O)C12 (stereo partly drawn) : inhibition value = 101

# inhibition of `Oc1cccc(/C=N/Nc2ccc(Cl)nn2)c1O` = 15.7

Consider O=C(c1[nH]ncc1-c1ccc(Cl)cc1)C1CO1 (stereo not drawn) . Its measured inhibition is 7.58

----------
# protocol_text: StAR promoter reporter inhibitors, counter-screen for LRH-1 inverse agonist project, cell-based, luminescence, high throughput (AID 651611)
# assay_conditions: StAR promoter luciferase reporter counterscreen, at 3.6 µM
The source made the active and inactive calls. No stated cut-off is given here; in the data, active means inhibition above about 28%; inactive means the rest.
Write down one outcome, taken from active, inactive

Query: Tell me the recorded outcome of this test for `Nc1nc2ccccc2n1/N=C/c1ccc([N+](=O)[O-])s1` .
Response: inactive

Query: # fetch the recorded call for CC(=O)NC(c1ccc(Cl)cc1Cl)c1ccc2cccnc2c1O (stereo unspecified) here
Response: active

Query: Returns: the outcome recorded for `N#Cc1cc(Br)ccc1N=C1CCCN1c1ccccc1` in this assay.
Response: inactive

Query: Identify the outcome logged in this assay for the compound shown: `CC(=O)Nc1cc(-c2ccc(S(C)(=O)=O)cc2)cn2c(-c3ccc(F)c(Cl)c3)cnc12`
Response: inactive

Query: Outcome logged for CCN(CC)C1Oc2cc3c(cc2C(c2cc(OC)c(OC)c(OC)c2)C1C)OCO3 (stereo unspecified) in this assay:
Response: active

Query: Recorded test call requested for `Cc1ccc(NC(=O)c2ccc([N+](=O)[O-])o2)c(C)c1`
Response: inactive

Query: Test call, this compound: `CCn1c(=NC(=O)CCS(=O)(=O)c2ccccc2)sc2cccc(OC)c21`
Response: inactive

Query: So what was the verdict on Cn1nccc1C(=O)NC1CCCc2c1cnn2-c1ccc(C(C)(C)C)cc1 (stereo unspecified) in this test?
Response: active

Query: Per the assay record, what outcome was assigned to `Nc1c2ccccc2nc2ccccc12` ?
Response: inactive

Query: What call does the record list for `CCCOc1ccc(Cc2c(Cl)nc(SC)nc2NC)cc1` ?
Response: inactive

Query: How was `CNc1c2cccc(C)c2nc2c(C(=O)NCCN(C)C)cccc12` classified in this test?
Response: active

----------
# experimental_target: Nuclear receptor coactivator 3 (Homo sapiens) (UniProt Q9Y6Q9)
# Sequence (Q9Y6Q9 whole entry, looked up): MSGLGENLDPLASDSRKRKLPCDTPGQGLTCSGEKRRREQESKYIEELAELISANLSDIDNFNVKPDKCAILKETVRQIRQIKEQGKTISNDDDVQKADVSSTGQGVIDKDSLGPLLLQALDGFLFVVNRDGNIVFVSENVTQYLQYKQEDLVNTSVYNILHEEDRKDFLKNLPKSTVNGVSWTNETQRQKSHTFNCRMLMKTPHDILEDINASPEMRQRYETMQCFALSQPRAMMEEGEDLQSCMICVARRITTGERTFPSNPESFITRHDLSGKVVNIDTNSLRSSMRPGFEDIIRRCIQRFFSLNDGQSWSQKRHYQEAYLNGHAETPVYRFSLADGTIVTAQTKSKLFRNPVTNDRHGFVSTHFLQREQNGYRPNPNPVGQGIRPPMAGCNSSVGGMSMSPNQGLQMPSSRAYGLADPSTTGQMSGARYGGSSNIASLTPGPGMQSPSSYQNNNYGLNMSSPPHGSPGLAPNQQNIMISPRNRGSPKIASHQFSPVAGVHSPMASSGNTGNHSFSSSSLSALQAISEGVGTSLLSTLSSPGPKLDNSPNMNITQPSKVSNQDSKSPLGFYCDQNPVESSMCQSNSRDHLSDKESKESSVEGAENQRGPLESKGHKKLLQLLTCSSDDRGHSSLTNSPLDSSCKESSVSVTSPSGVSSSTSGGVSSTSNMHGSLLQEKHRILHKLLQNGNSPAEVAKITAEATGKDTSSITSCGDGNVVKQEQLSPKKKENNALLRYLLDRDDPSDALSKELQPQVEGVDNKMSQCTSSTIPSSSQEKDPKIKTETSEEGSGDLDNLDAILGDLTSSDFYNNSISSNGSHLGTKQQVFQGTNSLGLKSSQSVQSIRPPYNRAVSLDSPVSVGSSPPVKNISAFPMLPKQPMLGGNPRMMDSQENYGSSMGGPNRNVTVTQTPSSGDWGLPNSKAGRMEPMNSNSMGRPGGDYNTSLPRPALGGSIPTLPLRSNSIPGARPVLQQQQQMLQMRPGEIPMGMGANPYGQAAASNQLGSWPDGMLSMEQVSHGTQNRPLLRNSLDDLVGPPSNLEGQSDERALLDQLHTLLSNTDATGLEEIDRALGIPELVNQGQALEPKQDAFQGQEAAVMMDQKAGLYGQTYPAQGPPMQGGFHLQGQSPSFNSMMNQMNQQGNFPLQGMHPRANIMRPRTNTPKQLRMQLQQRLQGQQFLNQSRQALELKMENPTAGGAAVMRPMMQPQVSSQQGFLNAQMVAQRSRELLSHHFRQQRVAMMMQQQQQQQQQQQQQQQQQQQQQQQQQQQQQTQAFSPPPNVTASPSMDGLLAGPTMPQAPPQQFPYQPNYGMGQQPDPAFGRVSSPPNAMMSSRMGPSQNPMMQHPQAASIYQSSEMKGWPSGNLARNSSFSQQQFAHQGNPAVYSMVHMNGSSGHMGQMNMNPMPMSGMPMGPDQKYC
# protocol_text: SRC3 coactivator transcriptional activity inhibitors, confirmation, cell-based, luminescence, quadruplicate (AID 588792);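 note: 0% = DMSO treated cells and 100% = gossypol at 36 µM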
# assay_conditions: HEK293 GAL4-SRC3 luciferase reporter, at 3.6 µM
The source made the active and inactive calls.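 Rule for the calls: active = mean inhibition over 43.08%, the solvent-only control mean plus 3 SD; inactive = the rest.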
Your response should consist of one outcome taken from active, inactive

Query: Recorded call for COc1ccc(C(=O)C(CCC(CNC(C)(C)C)C(=O)c2ccc(OC)cc2)CNC(C)(C)C)cc1 (stereo not drawn) ?
Response: inactive

Query: Returns: the outcome recorded for `Cc1ccc(NC(=O)O/N=C/c2c(C)nn(C(C)(C)C)c2C)cc1Cl` in this assay.
Response: active

Query: How was `O=C(N/N=C/c1cc(Br)ccc1OC(=O)c1ccc(Br)cc1)c1ccncc1` classified in this test?
Response: inactive

Query: Given `O=C(NNC1=Nc2ccccc2SC1)c1ccc(Cl)cc1` , state the outcome it received in this test.
Response: inactive

Query: // outcome(item) with item = COc1ccc2c(c1OC)C(=O)N1c3ccccc3C(=O)N(c3ccccc3F)C21 (stereo not drawn)
Response: inactive

Query: I'd appreciate the recorded outcome for `O=C(Nc1nc2cc3c(cc2s1)OCCO3)C1=COCCO1` from this test.
Response: inactive

Query: I'd appreciate the recorded outcome for CCCOC(c1ccccc1)(c1ccc(C(F)(F)F)cc1)C(Oc1nc(C)cc(C)n1)C(=O)O (stereo not drawn) from this test.
Response: active

Query: Field: outcome | Entry: `CCOc1ccc(-n2c(-c3ccc(Br)cc3)c[n+]3c2CCCCC3)cc1`
Response: inactive

Query: GET /call?item= `Cc1cc([N+](=O)[O-])nn1Cc1ccc(C(=O)N/N=C/c2ccc(O)cc2O)cc1` returns the recorded outcome of this test.
Response: active

Query: Dear all, I need the recorded test outcome for `Cc1c(Cl)c([N+](=O)[O-])nn1Cc1ccc(C(=O)N/N=C\c2cc(Cl)ccc2O)o1` , thank you.
Response: active

Query: Returns: the outcome recorded for `CC(C)CC(=O)/C(=C\c1ccc(Cl)cc1Cl)n1cncn1` in this assay.
Response: active

Query: // param item: `COc1ccc(-c2cn[nH]c2-c2ccc(OCc3ccc([N+](=O)[O-])cc3)cc2O)cc1` ; yields the recorded call
Response: inactive

Query: Hi, sorry to bother you, what did the test record for `COC(=O)N/N=C/c1cn(Cc2ccc(Cl)cc2Cl)c2ccccc12` ?
Response: inactive

Query: Assay result, entry `CC(=O)N1CCc2cc(S(=O)(=O)NCCC(=O)NCCc3ccc(Cl)cc3)ccc21` — outcome?
Response: inactive

Query: Assay outcome for `COc1cc(Cn2c3ccc(NC(=O)CCc4ccc(O)cc4)cc3c(=O)n2C)ccc1F` : what was it?
Response: inactive

Query: Lab log entry: Cc1ccc(-c2nc(CS(=O)CC(=O)NCCCN3CCN(Cc4ccccc4)CC3)c(C)o2)cc1 (stereo not drawn) — outcome as called in the assay?
Response: inactive

Query: Recorded test outcome, item O=C(CCc1ccccc1)NC(c1cccs1)c1cc(Cl)c2cccnc2c1O (stereo not drawn)
Response: active

Query: What call does the record list for CCOC(=O)C(C(C)=O)c1c(Br)c(O)c(O)c2c(C(=O)c3ccc(C)cc3)coc12 (stereo not drawn) ?
Response: active

Query: What outcome does the record of this test show for `CCN(CC)CCC(=O)Nc1cccc2c1C(=O)c1ccccc1C2=O` ?
Response: inactive

Query: Call for entry `CCOc1cc(/C=C2\COc3ccccc3C2=O)ccc1OCC(=O)N(C)C` :
Response: inactive

Query: State the result this test recorded for `Nc1ccccc1-c1ccc([N+](=O)[O-])cc1` .
Response: inactive

Query: What is the recorded call for this compound in the test? `O=C(N/N=C/c1cc(Cl)cc(Cl)c1O)c1ccncc1`
Response: inactive

Query: Fill in: this test's call for CC(C)c1ccc(/C=C2\SC(=S)N(CCC(=O)N3CCCCC3CCO)C2=O)cc1 (stereo not drawn) is ___
Response: inactive

Query: Outcome logged for `CCc1nc2ccccc2c(=O)n1NCCc1ccccc1` in this assay:
Response: inactive

Query: For `CCOC(=O)c1cccc2c1-c1ccccc1/C2=N/O` , which call appears in the assay record?
Response: inactive

Query: Write down the call the test reported for this compound. Item: `Cc1ccc(N(Cc2cc(=O)[nH]c3ccccc23)C(=O)CCl)c(C)c1`
Response: active

Query: Write down the call the test reported for this compound. Item: `CCOc1cc(C(N)=O)cc(Br)c1OCC`
Response: inactive

Query: Hi, do you know how Cc1ccc(Cl)cc1N1CCN(C(c2ccc(C#N)cc2)c2nnnn2C2CCCC2)CC1 (stereo not drawn) came out in this test?
Response: inactive

Query: Outcome logged for `O=C(O)c1cc(NS(=O)(=O)c2ccc(N3CCOCC3)c([N+](=O)[O-])c2)cc(C(=O)O)c1` in this assay:
Response: inactive

Query: Tell me the recorded outcome of this test for `COc1cc(/C=C/C(=O)c2ccc(F)cc2)cc(OC)c1OC` .
Response: active

Query: Could you kindly confirm the outcome this assay logged for `CCN1/C(=C/c2ccc3cc(C)ccc3[n+]2CC)Sc2cc(C)c(C)cc21` ?
Response: inactive

Query: Test call for this compound, please: `Cc1nn(Cc2ccc(C(=O)Nc3nccs3)cc2)c(C)c1Cl`
Response: inactive

Query: Per the records of this test, what outcome belongs to `CCCOc1ccc(/C=N/Nc2ccccc2[N+](=O)[O-])c(O)c1` ?
Response: inactive

Query: Outcome logged for `Cc1ccccc1Nc1nc(N)nc(CCl)n1` in this assay:
Response: inactive

Query: Entry `COc1ccc(NC(=O)c2cc(-c3cc(Cl)ccc3OC)n[nH]2)cc1OC` : call = ?
Response: inactive

Query: Hi team, can someone confirm the assay call for `O=c1c2ccccc2nc(N/N=C/c2c(O)ccc3ccccc23)n1O` ?
Response: active

Query: // return assay outcome for `CC(C)(C)c1cc(C(=O)N/N=C/c2ccc(O)cc2)n(-c2ccccc2)n1`
Response: inactive

Query: Recorded test call requested for `CC[n+]1ccccc1/C=C/c1ccc(N(C)C)cc1`
Response: inactive

Query: Outcome logged for CCCC(=O)NC(c1ccccc1Cl)c1ccc2cccnc2c1O (stereo not drawn) in this assay:
Response: active

Query: Outcome logged for `CCn1nc(C(=O)OCC(=O)c2ccc3c(c2)OCCO3)c2ccccc2c1=O` in this assay:
Response: inactive

Query: Recorded test outcome, item `Cn1c(=O)c2cc(NC(=O)CCc3ccc(O)cc3)ccc2n1Cc1cccc(C(F)(F)F)c1`
Response: inactive

Query: Could you please tell me the result logged for COc1cccc2c1C(=N)c1c(O)c3c(c(O)c1C2=O)CC(O)(C(C)=O)CC3OC1CC(N)C(O)C(C)O1 (stereo not drawn) in this assay?
Response: inactive

Query: How did this test come out for `c1ccc2c(-c3cncc4ccccc34)cncc2c1` ?
Response: inactive
